system: a variety of test species; test: Pre-emergence herbicidal activity (glasshouse, sprayed one day after sowing, evaluated after 13 days); assay type: in vivo; parameters: key: 5=total damage to plant; 0=no damage to plant; conditions: ECHCG, application pre-emergence, rate 1000 g/Ha, scale 0-5
Reported Pre-emergence herbicidal damage score, ECHCG is given for each of the following compounds.
measurement_kind: Pre-emergence herbicidal damage score, ECHCG

INSERT INTO measurements (compound, target_or_system, result) VALUES
  ('CC1=C(Cl)C(=O)N(c2cc(C(C)(C)C)on2)C1OC(=O)c1ccno1 (centres unmarked)', 'a variety of test species', 5),
  ('COCCNC1=C(Cl)C(=O)N(c2cc(C(C)(C)C)on2)C1O (centres unmarked)', 'a variety of test species', 4),
  ('CNC1=C(Cl)C(=O)N(c2cc(C(C)(C)C)on2)C1O (centres unmarked)', 'a variety of test species', 4),
  ('CCC(C)(C)c1onc(N2C(=O)C(C)=C(OC)C2O)c1C#N (centres unmarked)', 'a variety of test species', 5),
  ('CCOCCNC1=C(Cl)C(=O)N(c2cc(C(C)(C)C)on2)C1O (centres unmarked)', 'a variety of test species', 2),
  ('CC1=C(Cl)C(=O)N(c2noc(C(C)(C)C)c2C#N)C1OS(C)(=O)=O (centres unmarked)', 'a variety of test species', 5),
  ('CC1=C(Cl)C(=O)N(c2cc(C)on2)C1O (centres unmarked)', 'a variety of test species', 4),
  ('CCCC(C)(C)c1onc(N2C(=O)C(Cl)=C(C)C2O)c1C#N (centres unmarked)', 'a variety of test species', 4),
  ('C#CCNC1=C(Cl)C(=O)N(c2cc(C(C)(C)C)on2)C1O (centres unmarked)', 'a variety of test species', 5),
  ('CCC(=O)OC1C(C)=C(Cl)C(=O)N1c1cc(C(C)(CC)CC#N)on1 (centres unmarked)', 'a variety of test species', 5),
  ('CCC(C)(CC)c1cc(N2C(=O)C(Cl)=C(C)C2O)no1 (centres unmarked)', 'a variety of test species', 4),
  ('CCC1=C(Cl)C(=O)N(c2noc(C(C)(C)C)c2C#N)C1O (centres unmarked)', 'a variety of test species', 5),
  ('COc1ccc(OC(=O)OC2C(C)=C(Cl)C(=O)N2c2cc(C(C)(C)C)on2)cc1 (centres unmarked)', 'a variety of test species', 2),
  ('CCSC(=O)OC1C(C)=C(Cl)C(=O)N1c1cc(C(C)(C)C)on1 (centres unmarked)', 'a variety of test species', 5),
  ('CCCCC(C)(C)c1cc(N2C(=O)C(Cl)=C(C)C2O)no1 (centres unmarked)', 'a variety of test species', 5),
  ('COC1=C(C)C(=O)N(c2noc(C(C)(C)C)c2C#N)C1O (centres unmarked)', 'a variety of test species', 5),
  ('CC#CCOC(=O)OC1C(C)=C(Cl)C(=O)N1c1cc(C(C)(C)C)on1 (centres unmarked)', 'a variety of test species', 5),
  ('CC(C)(C)c1cc(N2C(=O)C(Cl)=C(NC3CCC3)C2O)no1 (centres unmarked)', 'a variety of test species', 0),
  ('CC1=C(Br)C(=O)N(c2cc(C(C)(C)C#N)on2)C1O (centres unmarked)', 'a variety of test species', 5),
  ('COC1=C(C)CN(c2cc(C(C)(C)C#N)on2)C1=O', 'a variety of test species', 5),
  ('C=CCOCC(C)(C)c1cc(N2C(=O)C(Cl)=C(C)C2O)no1 (centres unmarked)', 'a variety of test species', 4),
  ('CCCC1=C(Cl)C(=O)N(c2noc(C)c2C#N)C1O (centres unmarked)', 'a variety of test species', 4),
  ('COC1=C(Cl)C(O)N(c2cc(C(C)(C)C)on2)C1=O (centres unmarked) [E1]', 'a variety of test species', 3);

====

Reported Pre-emergence herbicidal damage score, ZEAMX is given for each of the following molecules.
Test system: a variety of test species
Experiment: Pre-emergence herbicidal activity (glasshouse, sprayed one day after sowing, evaluated after 13 days)
Assay type: in vivo
Details: ZEAMX, application pre-emergence, rate 1000 g/Ha, scale 0-5
Protocol: Seeds of a variety of test species were sown in standard soil in pots. […] After 13 days, the test was evaluated (5=total damage to plant; 0=no damage to plant).
measurement_kind: Pre-emergence herbicidal damage score, ZEAMX

INSERT INTO measurements (molecule, target_or_system, quantitative_result) VALUES
  ('COC1=C(C)C(OC(C)=O)N(c2cc(C(C)(C)C)on2)C1=O (stereo not drawn)', 'a variety of test species', 2),
  ('CCCC1=C(Cl)C(=O)N(c2noc(C(C)(C)C)c2C#N)C1O (stereo not drawn)', 'a variety of test species', 4),
  ('CC1=C(Br)C(=O)N(c2cc(C(C)(C)C)on2)C1O (stereo not drawn)', 'a variety of test species', 1),
  ('CC1=C(Cl)C(=O)N(c2cc(C(C)(C)CO)on2)C1O (stereo not drawn)', 'a variety of test species', 1),
  ('CCCC1=C(Br)C(=O)N(c2noc(C(C)(C)C#N)c2C#N)C1OC(=O)CC (stereo not drawn)', 'a variety of test species', 4),
  ('CC1=C(Cl)C(=O)N(c2cc(C)on2)C1O (stereo not drawn)', 'a variety of test species', 2),
  ('CC1=C(I)C(=O)N(c2cc(C(C)(C)C)on2)[C@H]1O', 'a variety of test species', 2),
  ('CC(C)C1=C(Cl)C(=O)N(c2cc(C(C)(C)C)on2)C1O (stereo not drawn)', 'a variety of test species', 1),
  ('CCC(C)(C)c1onc(N2C(=O)C(Cl)=C(C)C2O)c1C#N (stereo not drawn)', 'a variety of test species', 2),
  ('CCCCC(C)(C)c1onc(N2C(=O)C(Cl)=C(C)C2O)c1C#N (stereo not drawn)', 'a variety of test species', 2),
  ('COC1=C(Cl)C(OC(C)=O)N(c2cc(C(C)(C)C)on2)C1=O (stereo not drawn) [E2]', 'a variety of test species', 1),
  ('CCC1=C(Cl)C(=O)N(c2cc(C(C)(C)C)on2)C1O (stereo not drawn)', 'a variety of test species', 3),
  ('CCOC1=C(C)C(O)N(c2cc(C(C)(C)C#N)on2)C1=O (stereo not drawn)', 'a variety of test species', 3),
  ('CCC1=C(Br)C(=O)N(c2cc(C(C)(C)C)on2)C1O (stereo not drawn)', 'a variety of test species', 2),
  ('CCCC1=C(Cl)C(=O)N(c2noc(C(C)(C)CC)c2C#N)C1O (stereo not drawn)', 'a variety of test species', 1),
  ('CCCC1=C(Br)C(=O)N(c2noc(C(C)(C)C)c2C#N)C1OC(=O)CC (stereo not drawn)', 'a variety of test species', 3),
  ('COC1=C(Cl)C(=O)N(c2cc(C(C)(C)C)on2)C1O (stereo not drawn)', 'a variety of test species', 4),
  ('CC1=C(Cl)C(=O)N(c2cc(C(C)(C)CC#N)on2)C1O (stereo not drawn)', 'a variety of test species', 4),
  ('CC1=C(Cl)C(=O)N(c2cc(C(C)(C)C)on2)C1OC(=O)c1ccc(C(F)(F)F)nc1 (stereo not drawn)', 'a variety of test species', 1),
  ('CCC(C)(C)c1onc(N2CC(C)=C(OC)C2=O)c1C#N', 'a variety of test species', 2),
  ('CCC1=C(Br)C(=O)N(c2noc(C(C)C)c2C#N)C1O (stereo not drawn)', 'a variety of test species', 3);

====

tested on: a variety of test species; assay: Pre-emergence herbicidal activity (glasshouse, sprayed one day after sowing, evaluated after 13 days); format: in vivo; conditions: AMARE, application pre-emergence, rate 1000 g/Ha, scale 0-5
measurement_kind: Pre-emergence herbicidal damage score, AMARE

INSERT INTO measurements (molecule, target_or_system, quantitative_result) VALUES
  ('CCCC1=C(Cl)C(=O)N(c2noc(C(C)(C)CC)c2C#N)C1O (stereo not shown) [A68]', 'a variety of test species', 3),
  ('CC1=C(Cl)C(=O)N(c2cc(C(C)(C)C)on2)C1OC(=O)OCC(C)(C)C (stereo not shown) [A88]', 'a variety of test species', 5),
  ('CC1=C(Br)C(=O)N(c2cc(C(F)(F)F)on2)C1O (stereo not shown) [A6]', 'a variety of test species', 0),
  ('CC(C)(C)c1cc(N2C(=O)C(Cl)=C(N)C2O)no1 (stereo not shown) [C6]', 'a variety of test species', 5),
  ('COC1=C(C)C(O)N(c2noc(C(C)C)c2C#N)C1=O (stereo not shown) [D3]', 'a variety of test species', 5),
  ('CC1=C(Cl)C(=O)N(c2cc(C(C)(C)C#N)on2)C1O (stereo not shown) [A42]', 'a variety of test species', 5),
  ('CCOc1cc(N2C(=O)C(Cl)=C(C)C2O)no1 (stereo not shown) [A32]', 'a variety of test species', 1),
  ('CC1=C(Cl)C(=O)N(c2cc(C3CC3)on2)C1O (stereo not shown) [A22]', 'a variety of test species', 4),
  ('CC1=C(Cl)C(=O)N(c2cc(C(C)(C)C)on2)C1OC(=O)c1sccc1Cl (stereo not shown) [A91]', 'a variety of test species', 4),
  ('CCC(C)(C)c1cc(N2C(=O)C(Cl)=C(C)C2O)no1 (stereo not shown) [A29]', 'a variety of test species', 5);
